details: Beagle, in vivo, po
Marks after values point to notes of the source that are not given here.
MEASURED_METRIC: Dog F % (solution)

compound="CN(CCCC(=O)N(c1nn(CC(F)(F)F)c2c(-c3ccc(C#CC(C)(C)S(C)(=O)=O)nc3[C@H](Cc3cc(F)cc(F)c3)NC(=O)Cn3nc(C(F)(F)F)c4c3C(F)(F)[C@@H]3C[C@H]43)ccc(Cl)c12)S(C)(=O)=O)C(=O)OCOP(=O)(O)O [Compound 32]" measured_metric="Dog F % (solution)" result="31^b %"
compound="Cc1cc(CP(=O)(O)O)c(C(C)(C)CC(=O)N(c2nn(CC(F)(F)F)c3c(-c4ccc(C#CC(C)(C)S(C)(=O)=O)nc4[C@H](Cc4cc(F)cc(F)c4)NC(=O)Cn4nc(C(F)(F)F)c5c4C(F)(F)[C@@H]4C[C@H]54)ccc(Cl)c23)S(C)(=O)=O)c(OP(=O)(O)O)c1 [Compound 55]" measured_metric="Dog F % (solution)" result="33 ^c %"
compound="CN(C(=O)N(c1nn(CC(F)(F)F)c2c(-c3ccc(C#CC(C)(C)S(C)(=O)=O)nc3[C@H](Cc3cc(F)cc(F)c3)NC(=O)Cn3nc(C(F)(F)F)c4c3C(F)(F)[C@@H]3C[C@H]43)ccc(Cl)c12)S(C)(=O)=O)c1ncc(C(=O)O)cc1COP(=O)(O)O [Compound 62]" measured_metric="Dog F % (solution)" result="8 ^c %"
compound="Cc1cc(CC(=O)N[C@@H](CC(=O)O)C(=O)O)c(C(C)(C)CC(=O)N(c2nn(CC(F)(F)F)c3c(-c4ccc(C#CC(C)(C)S(C)(=O)=O)nc4[C@H](Cc4cc(F)cc(F)c4)NC(=O)Cn4nc(C(F)(F)F)c5c4C(F)(F)[C@@H]4C[C@H]54)ccc(Cl)c23)S(C)(=O)=O)c(OP(=O)(O)O)c1 [Compound 59]" measured_metric="Dog F % (solution)" result="27 ^c %"

###

conditions: 1×PBS buffer (pH 7.4), 1.0% DMSO, 24-hour incubation at ambient temperature, maximum theoretical compound concentration 100 μM
MEASURED_METRIC: pH 7 solubility (μM)

compound_structure=CN(C(=O)N(c1nn(CC(F)(F)F)c2c(-c3ccc(C#CC(C)(C)S(C)(=O)=O)nc3[C@H](Cc3cc(F)cc(F)c3)NC(=O)Cn3nc(C(F)(F)F)c4c3C(F)(F)[C@@H]3C[C@H]43)ccc(Cl)c12)S(C)(=O)=O)c1ncc(C(=O)O)cc1COP(=O)(O)O measured_metric="pH 7 solubility" measurement_units=μM recorded_number=67
compound_structure=CC(C)(C#Cc1ccc(-c2ccc(Cl)c3c(N(C(=O)CCCN(C(=O)OCOP(=O)(O)O)[C@H](C(=O)O)c4ccccc4)S(C)(=O)=O)nn(CC(F)(F)F)c23)c([C@H](Cc2cc(F)cc(F)c2)NC(=O)Cn2nc(C(F)(F)F)c3c2C(F)(F)[C@@H]2C[C@H]32)n1)S(C)(=O)=O measured_metric="pH 7 solubility" measurement_units=μM recorded_number=100

###

conditions: pH 7.4
MEASURED_METRIC: pH 7 solubility

compound_structure=CC(C)(CC(=O)N(c1nn(CC(F)(F)F)c2c(-c3ccc(C#CC(C)(C)S(C)(=O)=O)nc3[C@H](Cc3cc(F)cc(F)c3)NC(=O)Cn3nc(C(F)(F)F)c4c3C(F)(F)[C@@H]3C[C@H]43)ccc(Cl)c12)S(C)(=O)=O)c1c(CC(=O)N[C@@H](CC(=O)O)C(=O)O)cccc1OP(=O)(O)O result="2/88 μM"
compound_structure=Cc1cc(CC(=O)NCC(=O)O)c(C(C)(C)CC(=O)N(c2nn(CC(F)(F)F)c3c(-c4ccc(C#CC(C)(C)S(C)(=O)=O)nc4[C@H](Cc4cc(F)cc(F)c4)NC(=O)Cn4nc(C(F)(F)F)c5c4C(F)(F)[C@@H]4C[C@H]54)ccc(Cl)c23)S(C)(=O)=O)c(OP(=O)(O)O)c1 result="1/85 μM"
compound_structure=CC(C)(CC(=O)N(c1nn(CC(F)(F)F)c2c(-c3ccc(C#CC(C)(C)S(C)(=O)=O)nc3[C@H](Cc3cc(F)cc(F)c3)NC(=O)Cn3nc(C(F)(F)F)c4c3C(F)(F)[C@@H]3C[C@H]43)ccc(Cl)c12)S(C)(=O)=O)c1c(CC(=O)O)cccc1OP(=O)(O)O result="7/94 μM"
compound_structure=CC(C)(C#Cc1ccc(-c2ccc(Cl)c3c(N(C(=O)Cc4ccc(OP(=O)(O)O)cc4)S(C)(=O)=O)nn(CC(F)(F)F)c23)c([C@H](Cc2cc(F)cc(F)c2)NC(=O)Cn2nc(C(F)(F)F)c3c2C(F)(F)[C@@H]2C[C@H]32)n1)S(C)(=O)=O result="1/100 μM"
compound_structure=Cc1cc(CC(=O)O)c(C(C)(C)CC(=O)N(c2nn(CC(F)(F)F)c3c(-c4ccc(C#CC(C)(C)S(C)(=O)=O)nc4[C@H](Cc4cc(F)cc(F)c4)NC(=O)Cn4nc(C(F)(F)F)c5c4C(F)(F)[C@@H]4C[C@H]54)ccc(Cl)c23)S(C)(=O)=O)c(OP(=O)(O)O)c1 result="1/100 μM"
compound_structure=Cc1cc(CC(=O)NCP(=O)(O)O)c(C(C)(C)CC(=O)N(c2nn(CC(F)(F)F)c3c(-c4ccc(C#CC(C)(C)S(C)(=O)=O)nc4[C@H](Cc4cc(F)cc(F)c4)NC(=O)Cn4nc(C(F)(F)F)c5c4C(F)(F)[C@@H]4C[C@H]54)ccc(Cl)c23)S(C)(=O)=O)c(OP(=O)(O)O)c1 result="2/70 μM"
compound_structure=Cc1cc(C(=O)NCP(=O)(O)O)cc(OP(=O)(O)O)c1C(C)(C)CC(=O)N(c1nn(CC(F)(F)F)c2c(-c3ccc(C#CC(C)(C)S(C)(=O)=O)nc3[C@H](Cc3cc(F)cc(F)c3)NC(=O)Cn3nc(C(F)(F)F)c4c3C(F)(F)[C@@H]3C[C@H]43)ccc(Cl)c12)S(C)(=O)=O result="1/64 μM"
compound_structure=Cc1cc(C(=O)O)cc(OP(=O)(O)O)c1C(C)(C)CC(=O)N(c1nn(CC(F)(F)F)c2c(-c3ccc(C#CC(C)(C)S(C)(=O)=O)nc3[C@H](Cc3cc(F)cc(F)c3)NC(=O)Cn3nc(C(F)(F)F)c4c3C(F)(F)[C@@H]3C[C@H]43)ccc(Cl)c12)S(C)(=O)=O result="3/100 μM"
compound_structure=CN(C(=O)N(c1nn(CC(F)(F)F)c2c(-c3ccc(C#CC(C)(C)S(C)(=O)=O)nc3[C@H](Cc3cc(F)cc(F)c3)NC(=O)Cn3nc(C(F)(F)F)c4c3C(F)(F)[C@@H]3C[C@H]43)ccc(Cl)c12)S(C)(=O)=O)c1ccccc1OP(=O)(O)O result="1/63 μM"

###

// pH 7 solubility lookup, one value per entry
settings: 1×PBS buffer (pH 7.4), 1.0% DMSO, 24-hour incubation at ambient temperature, maximum theoretical compound concentration 100 μM
MEASURED_METRIC: pH 7 solubility (μM)

compound="CC(C)(C#Cc1ccc(-c2ccc(Cl)c3c(N(C(=O)CCC(=O)OCOP(=O)(O)O)S(C)(=O)=O)nn(CC(F)(F)F)c23)c([C@H](Cc2cc(F)cc(F)c2)NC(=O)Cn2nc(C(F)(F)F)c3c2C(F)(F)[C@@H]2C[C@H]32)n1)S(C)(=O)=O [Compound 28]" measured_metric="pH 7 solubility" measurement_units=μM recorded_number=86
compound="CC(C)(CNC(=O)OCOP(=O)(O)O)CC(=O)N(c1nn(CC(F)(F)F)c2c(-c3ccc(C#CC(C)(C)S(C)(=O)=O)nc3[C@H](Cc3cc(F)cc(F)c3)NC(=O)Cn3nc(C(F)(F)F)c4c3C(F)(F)[C@@H]3C[C@H]43)ccc(Cl)c12)S(C)(=O)=O [Compound 41]" measured_metric="pH 7 solubility" measurement_units=μM recorded_number=100
compound="C[C@H](N)C(=O)N(c1nn(CC(F)(F)F)c2c(-c3ccc(C#CC(C)(C)S(C)(=O)=O)nc3[C@H](Cc3cc(F)cc(F)c3)NC(=O)Cn3nc(C(F)(F)F)c4c3C(F)(F)[C@@H]3C[C@H]43)ccc(Cl)c12)S(C)(=O)=O [Compound 18]" measured_metric="pH 7 solubility" measurement_units=μM recorded_number=1

###

conditions: 1×PBS buffer (pH 7.4), 1.0% DMSO, 24-hour incubation at ambient temperature, maximum theoretical compound concentration 100 μM
MEASURED_METRIC: pH 7 solubility (μM)

compound_structure=CC(C)(C#Cc1ccc(-c2ccc(Cl)c3c(N(C(=O)CN)S(C)(=O)=O)nn(CC(F)(F)F)c23)c([C@H](Cc2cc(F)cc(F)c2)NC(=O)Cn2nc(C(F)(F)F)c3c2C(F)(F)[C@@H]2C[C@H]32)n1)S(C)(=O)=O measurement_units=μM recorded_number=8
